Just for reference, paper PMC8728441 is where these values come from.

- Target or test system: T1, MftR L120R (Mycobacterium smegmatis mc2155, UniProt A0QSB5 1-200, L120R)
- T1 sequence: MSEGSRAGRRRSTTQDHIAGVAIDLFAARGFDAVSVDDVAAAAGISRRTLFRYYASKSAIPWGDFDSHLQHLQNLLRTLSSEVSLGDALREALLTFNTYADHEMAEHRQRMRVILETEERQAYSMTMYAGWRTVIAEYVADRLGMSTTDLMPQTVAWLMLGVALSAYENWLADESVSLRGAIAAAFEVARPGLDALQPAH
- Assay overview: fluorescence polarization; EMSA: 50 mM Hepes, 50 mM NaCl, 0.1 mM EDTA, pH 7.5, room temperature 10 min, 5% PAGE in 1x TBE on ice; footprinting: 30 C 30 min; FP conditions not in material. Text fold changes for R29A/R48A and L120R/M127A are swapped relative to Table 2; table values used
- Assay setup: protein: recombinant; tags: His-tag (pET-28a); chain copies: 2; label: 6-FAM; blunt
Outcome measure: Kd (µM)

In [3]: df
Out[3]:
                                     binder  measured_value
0  FAM-Omft (dsDNA) DNA 1: TCCATTCTGGCACTCGATGCCATATAT DNA 2: ATATATGGCATCGAGTGCCAGAATGGA              28
